Assay: Metabolic stability in human liver microsomes assessed as clearance measured upto 120 mins by LC-MS/MS analysis
Assay type: ADME, Microsome
Details: read-out: CLH
# maps each entry to its microsomal CLint

{"columns": ["COMPOUND SMILES", "microsomal CLint, µL/min/mg"],
 "data": [
  ["C=CCCCCOc1cccc(CC(=O)Nc2ccc(CCCCc3nnc(NC(=O)CCC=C)s3)nn2)c1", 138],
  ["C=CCCCCOc1cccc(CC(=O)Nc2ccc(CCCCc3nnc(NC(=O)C4CC(F)(F)C4)s3)nn2)c1", 39.5],
  ["CCCCCCOc1cccc(CC(=O)Nc2ccc(CCCCc3nnc(NC(=O)CCCC)s3)nn2)c1", 134],
  ["C=CCCOc1cccc(CC(=O)Nc2ccc(N3CCC(Nc4nnc(NC(=O)CCC=C)s4)CC3)nn2)c1", 50.2],
  ["O=C(Cc1cccc(OC(F)(F)F)c1)Nc1ccc(CCCCc2nnc(NC(=O)Cc3ccccn3)s2)nn1", 35],
  ["CCCCOc1cccc(CC(=O)Nc2ccc(N3CCC(Nc4nnc(NC(=O)CCCC)s4)CC3)nn2)c1", 32],
  ["CCCCOc1cccc(CC(=O)Nc2ccc(CCCCc3nnc(NC(=O)CCCC)s3)nn2)c1", 63.5]
]}

Reference for the values: ChEMBL document CHEMBL5352475
